# Target of assay: SOS1 and KRAS G12D (Homo sapiens (Human))
# Sequence (Q07889 564-1049, stated change not applied): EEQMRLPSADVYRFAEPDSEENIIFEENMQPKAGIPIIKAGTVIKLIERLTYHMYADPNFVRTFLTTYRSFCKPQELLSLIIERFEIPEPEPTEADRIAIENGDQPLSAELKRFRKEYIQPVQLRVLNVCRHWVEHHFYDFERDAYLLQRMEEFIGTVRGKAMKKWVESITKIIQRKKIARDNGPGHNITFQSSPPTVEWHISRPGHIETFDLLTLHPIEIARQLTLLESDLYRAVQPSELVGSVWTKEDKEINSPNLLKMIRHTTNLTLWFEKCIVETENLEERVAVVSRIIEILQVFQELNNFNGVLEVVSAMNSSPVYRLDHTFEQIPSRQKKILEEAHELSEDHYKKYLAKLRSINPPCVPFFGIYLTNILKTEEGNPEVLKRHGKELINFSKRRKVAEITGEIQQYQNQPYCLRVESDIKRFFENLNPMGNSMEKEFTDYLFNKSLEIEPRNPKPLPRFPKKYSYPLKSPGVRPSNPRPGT
# Experiment summary: KRAS::SOS1 AlphaScreen binding assay (KRAS G12D)
# Protocol conditions: average of at least two measurements
Measure: IC50 (nM)
Express it in nM; write the number only.

Compound | Target of assay | IC50 (nM)
C[C@@H](NC(=O)c1cc(N2CCC(N3CCCC(O)CC3)CC2)c2ncnn2c1)c1cccc(C(F)F)c1F (single isomer, unassigned) [Example E17a] | SOS1 and KRAS G12D (Homo sapiens (Human)) | 28
C[C@@H](NC(=O)c1cc(N2CCC(N(C)CC3(O)CC3)CC2)c2ncnn2c1)c1cccc(C(F)F)c1F [Example E13] | SOS1 and KRAS G12D (Homo sapiens (Human)) | 54
C[C@@H](NC(=O)c1cc(N2CCC(N3CCC[C@H](O)C3)CC2)c2ncnn2c1)c1cccc(C(F)F)c1F [Example E18] | SOS1 and KRAS G12D (Homo sapiens (Human)) | 37
C[C@@H](NC(=O)c1cc(N2CCC(N3CC[C@@H](CO)C3)CC2)c2ncnn2c1)c1cccc(C(F)(F)F)c1F [Example E27] | SOS1 and KRAS G12D (Homo sapiens (Human)) | 73
C[C@@H](NC(=O)c1cc([C@H]2CC[C@H](N3CC[C@H](O)C3)CC2)c2ncnn2c1)c1cccc(C(F)(F)F)c1F [Example E69] | SOS1 and KRAS G12D (Homo sapiens (Human)) | 23
C[C@@H](NC(=O)c1cc(N2CCC(NC3COCC3O)CC2)c2ncnn2c1)c1cccc(C(F)(F)F)c1F (single isomer, unassigned) [Example cis-E41a] | SOS1 and KRAS G12D (Homo sapiens (Human)) | 38
C[C@@H](NC(=O)c1cc(N2CCC(NCC(C)(C)O)CC2)c2ncnn2c1)c1cccc(C(F)(F)F)c1F [Example E50] | SOS1 and KRAS G12D (Homo sapiens (Human)) | 42
C[C@@H](NC(=O)c1cc(N2CCC3(CCCCN3)CC2)c2ncnn2c1)c1cccc(C(F)(F)F)c1F [Example E45] | SOS1 and KRAS G12D (Homo sapiens (Human)) | 30
C[C@@H](NC(=O)c1cc(N2CCC(O)(C3CCCN3)CC2)c2ncnn2c1)c1cccc(C(F)F)c1F (single isomer, unassigned) [Example E38a] | SOS1 and KRAS G12D (Homo sapiens (Human)) | 45
C[C@@H](NC(=O)c1cc([C@H]2CC[C@H](N3CCC(F)C(O)C3)CC2)c2ncnn2c1)c1cccc(C(F)F)c1F (single isomer, unassigned) [Example trans-E61b] | SOS1 and KRAS G12D (Homo sapiens (Human)) | 32

-- ask Please report the recorded IC50 for C[C@@H](NC(=O)c1cc(N2CCC(N3CCC[C@@H](O)C3)CC2)c2ncnn2c1)c1cccc(C(F)F)c1F [Example E22] .
-- reply 49

-- ask Entry C[C@@H](NC(=O)c1cc([C@H]2CC[C@H](N3CCC[C@@H](O)C3)CC2)c2ncnn2c1)c1cccc(C(F)F)c1F [Example E58] please
-- reply 32

-- ask Entry C[C@@H](NC(=O)c1cc(N2CCC3(CCCN3C)CC2)n2ncnc2c1)c1cccc(C(F)(F)F)c1F [Example E86] please
-- reply 44

All values here come from patent US20250313560A1.
